Origin of measurements: patent US6716987B1

Consider the following compounds and their measured melting point readings.
Endpoint: melting point

[[record]]
compound = "COc1ccc(C(Sc2ccncc2)c2ccccc2)c2c1OCC2C (racemic) [Compound 60B]"
observed = "84 to 85 °C"

[[record]]
compound = "COc1ccc(C(=O)Cc2c(Cl)cncc2Cl)c2c1OCO2"
observed = "170 to 171 °C"

[[record]]
compound = "COc1ccc(C(=O)Cc2c(Cl)cncc2Cl)c2c(CC(=O)OCc3ccccc3[N+](=O)[O-])coc12"
observed = "200 to 201 °C"

[[record]]
compound = "COc1ccc(-c2ccc(C(=O)O)cc2)c2c1OC(C)(C)C2"
observed = "249 to 252 °C"

[[record]]
compound = "COc1ccc(C(=O)Nc2c(Cl)cncc2Cl)c2c1OC1(C=C2)CCCC1"
observed = "129 to 131 °C"


---

test system: cAMP-specific phosphodiesterase (PDE IV); test: Inhibition of the PDE IV enzyme derived from a dog trachea; type: biochemical; details: test compound 10^−6 M; PDE IV from dog tracheal smooth muscle; substrate cAMP 1 μM
Consider the following molecules and their measured Enzyme Inhibitory Activity (%, 10^−6 M) readings.
Endpoint: Enzyme Inhibitory Activity (%, 10^−6 M) (%)

[[record]]
molecule = "COc1ccc(C(C)(C#N)Cc2ccncc2)c2c1OC1(CCCC1)C2.Cl (racemic)"
experimental_system = "cAMP-specific phosphodiesterase (PDE IV)"
endpoint = "Enzyme Inhibitory Activity (%, 10^−6 M)"
observed = 74

[[record]]
molecule = "COc1ccc(CSc2ccncc2)c2c1OC(C)(C)C2"
experimental_system = "cAMP-specific phosphodiesterase (PDE IV)"
endpoint = "Enzyme Inhibitory Activity (%, 10^−6 M)"
observed = 41

[[record]]
molecule = "COc1ccc(/C=C/c2ccncc2)c2cc(-c3ccncc3)oc12.Cl.Cl"
experimental_system = "cAMP-specific phosphodiesterase (PDE IV)"
endpoint = "Enzyme Inhibitory Activity (%, 10^−6 M)"
observed = 89

[[record]]
molecule = "CCCCc1cc2c(C(=O)Cc3ccncc3)ccc(OC)c2o1.Cl"
experimental_system = "cAMP-specific phosphodiesterase (PDE IV)"
endpoint = "Enzyme Inhibitory Activity (%, 10^−6 M)"
observed = 68

[[record]]
molecule = "COc1ccc(C(=O)Nc2c(Cl)cncc2Cl)c2c1OCC2CC(=O)Nc1ccccc1 (racemic)"
experimental_system = "cAMP-specific phosphodiesterase (PDE IV)"
endpoint = "Enzyme Inhibitory Activity (%, 10^−6 M)"
observed = 75

[[record]]
molecule = "COc1ccc(C(=O)Nc2c(Cl)cncc2Cl)c2cc(-c3ccncc3)oc12"
experimental_system = "cAMP-specific phosphodiesterase (PDE IV)"
endpoint = "Enzyme Inhibitory Activity (%, 10^−6 M)"
observed = 89

[[record]]
molecule = "COc1ccc(C(=O)Cc2ccccc2)c2cc(C(=O)c3ccccc3)oc12"
experimental_system = "cAMP-specific phosphodiesterase (PDE IV)"
endpoint = "Enzyme Inhibitory Activity (%, 10^−6 M)"
observed = 63

[[record]]
molecule = "COc1ccc(C(=O)Nc2ccncc2)c2c1OC1(CCCC1)CC2.CS(=O)(=O)O"
experimental_system = "cAMP-specific phosphodiesterase (PDE IV)"
endpoint = "Enzyme Inhibitory Activity (%, 10^−6 M)"
observed = 57

[[record]]
molecule = "COc1ccc(C(=O)Nc2c(Cl)cncc2Cl)c2c1OCC2CC(=O)O (racemic)"
experimental_system = "cAMP-specific phosphodiesterase (PDE IV)"
endpoint = "Enzyme Inhibitory Activity (%, 10^−6 M)"
observed = 22

[[record]]
molecule = "COc1ccc(CCc2ccncc2)c2c1OC1(CCCC1)O2.Cl"
experimental_system = "cAMP-specific phosphodiesterase (PDE IV)"
endpoint = "Enzyme Inhibitory Activity (%, 10^−6 M)"
observed = 75

[[record]]
molecule = "COc1ccc(/C=C/c2ccncc2)c2cc(-c3ccccc3)oc12.Cl"
experimental_system = "cAMP-specific phosphodiesterase (PDE IV)"
endpoint = "Enzyme Inhibitory Activity (%, 10^−6 M)"
observed = 56

[[record]]
molecule = "CCOC(=O)CC1COc2c(OC)ccc(C(=O)Nc3c(Cl)cncc3Cl)c21 (racemic)"
experimental_system = "cAMP-specific phosphodiesterase (PDE IV)"
endpoint = "Enzyme Inhibitory Activity (%, 10^−6 M)"
observed = 85

[[record]]
molecule = "COc1ccc(C(=O)Cc2c(Cl)cncc2Cl)c2c1CC1(CCCC1)O2"
experimental_system = "cAMP-specific phosphodiesterase (PDE IV)"
endpoint = "Enzyme Inhibitory Activity (%, 10^−6 M)"
observed = 66

[[record]]
molecule = "COc1ccc(C(=O)Nc2c(Cl)cncc2Cl)c2c1OCC2CC(=O)Nc1cccnc1 (racemic)"
experimental_system = "cAMP-specific phosphodiesterase (PDE IV)"
endpoint = "Enzyme Inhibitory Activity (%, 10^−6 M)"
observed = 87

[[record]]
molecule = "COc1ccc(C(=O)Cc2c(Cl)cncc2Cl)c2c1OC1(CCCC1)C2"
experimental_system = "cAMP-specific phosphodiesterase (PDE IV)"
endpoint = "Enzyme Inhibitory Activity (%, 10^−6 M)"
observed = 91

[[record]]
molecule = "COc1ccc(C(=O)Cc2c(Cl)cncc2Cl)c2c1OCC2C (racemic)"
experimental_system = "cAMP-specific phosphodiesterase (PDE IV)"
endpoint = "Enzyme Inhibitory Activity (%, 10^−6 M)"
observed = 88

[[record]]
molecule = "COc1ccc(C(=O)Nc2c(Cl)cncc2Cl)c2c1OCC2CC(=O)N1CCN(C)CC1.Cl (racemic)"
experimental_system = "cAMP-specific phosphodiesterase (PDE IV)"
endpoint = "Enzyme Inhibitory Activity (%, 10^−6 M)"
observed = 63

